# Total Cell Count values compiled below
test system: HEK-293T; experiment: Multiplex assay against HEK293T; assay type: toxicity, cell-based; conditions: human, 48 h, 1 µM, compound concentration 1 uM, replicate 1
Hey, just send me the number, nothing else.

Sample records with Total Cell Count:
| molecule | targetDesc | Total Cell Count |
| --- | --- | --- |
| N[C@](CC1c2ccccc2Oc2ccccc21)(C(=O)O)[C@H]1C[C@@H]1C(=O)O | HEK-293T | 1040 |
| CN1C[C@H](C(=O)N[C@]2(C)O[C@@]3(O)[C@@H]4CCCN4C(=O)[C@H](Cc4ccccc4)N3C2=O)C[C@@H]2c3cccc4[nH]cc(c34)C[C@H]21.CS(=O)(=O)O [DIHYDROERGOTAMINE MESYLATE] | HEK-293T | 1011 |
| Cc1cc(=O)n(C)c2cc(N3C(=O)CC[C@H](NS(=O)(=O)CC(C)C)[C@H]3c3ccc(Cl)cc3)ccc12 | HEK-293T | 985 |
| Nc1nc(-c2ccco2)c2cnn(Cc3ccccc3F)c2n1 | HEK-293T | 641 |

Prompt: Fill blank: measured Total Cell Count of the molecule Cc1ccc(OCC(O)C(C)NC(C)C)c2c1CCC2.Cl (stereo unspecified) is ____.
Completion: 804

Prompt: Tell me the measured Total Cell Count of O=c1nc2[nH]c3ccccc3nc-2c(=O)[nH]1 , please.
Completion: 773

Prompt: Which Total Cell Count value is on record for CN1CCN2c3ccccc3Cc3ccccc3C2C1.Cl (stereo unspecified) [MIANSERIN HYDROCHLORIDE] ?
Completion: 812

Prompt: Dear colleague, I am looking for the recorded Total Cell Count of the following molecule: CC(C)C[C@H](CO)Nc1nc(S[C@@H](C)c2ccccc2)nc2nc(N)sc12
Completion: 663

###

Overview of recorded Total Cell Count for various compounds
test system: HEK-293T; assay: Multiplex assay against HEK293T; format: toxicity, cell-based; conditions: human, 24 h, 1 µM, compound concentration 1 uM, replicate 1
Just the number, please, no unit attached.

Some solved cases for reference:
| compound | targetDesc | recordedMeasurement |
| --- | --- | --- |
| CN(C)C(=O)Cn1cc(-c2ccc(-c3nnc4ccccn34)cc2)cn1 | HEK-293T | 595 |
| Cc1nn(C)c2nc(NNC(=O)Nc3cc(Cl)nc(Cl)c3)cc(C(C)C)c12 | HEK-293T | 608 |
| Cc1sc2c(c1C)C(c1ccc(Cl)cc1)=N[C@H](CC(=O)OC(C)(C)C)c1nnc(C)n1-2 | HEK-293T | 609 |
| O=C(O)CCC/C=C\CC1C(O)CC(O)C1/C=C/C(O)COc1cccc(Cl)c1 (configuration not stated) | HEK-293T | 612 |
| COCCCN1CCC(NC(=O)c2cc(Cl)c(N)c3c2OCC3)CC1 [PRUCALOPRIDE] | HEK-293T | 590 |
| COc1cc(OC2CCN(C(C)=O)CC2)ccc1C(=O)N1CCC(N2C(=O)OCc3ccccc32)CC1 | HEK-293T | 598 |

Now for a further compound.
Prompt: Reported Total Cell Count for HEK-293T, given CCCCC[C@H](O)/C=C/[C@H]1[C@H](O)CC(=O)[C@@H]1CCCCCCC(=O)O ?
Completion: 605

###

Let's look at some molecules and their measured Population Membrane Permeable-Phenotype (%).
tested on: U2OS; test: Multiplex assay against U2OS; assay type: toxicity, cell-based; conditions: human, 12 h, 1 µM, compound concentration 1 uM, replicate 2

Worked examples follow.
| molecule | recordedMeasurement |
| --- | --- |
| Cc1nn(C)c2nc(NNC(=O)Nc3cc(Cl)nc(Cl)c3)cc(C(C)C)c12 | 10% |
| CN(C)C/C=C/C(=O)Nc1ccc(C(=O)N2CCCC(Nc3ncc(Cl)c(-c4c[nH]c5ccccc45)n3)C2)cc1 (stereo unspecified) | 6% |
| Cc1cc(O)c(-c2ccc([C@@H](C)CN(C)C)cc2)c2c1[nH]c(=O)c1sccc12 | 9% |
| COCCn1c(C)c(C)s/c1=N\C(=O)C1C(C)(C)C1(C)C | 11% |
| Nc1nc(-c2ccco2)c2cnn(Cc3ccccc3F)c2n1 | 12% |

# evaluate next
Prompt: What value of Population Membrane Permeable-Phenotype (%) has been recorded for this entry: CN1CCN(c2ccc(Nc3c4ccccc4nc4ccccc34)cc2)CC1.Cl.Cl.O
Completion: 14%
